Target: furin, P09958;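 also: purified furin at 1:10 enzyme:substrate in 50 mM HEPES pH 7.5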
Sequence (P09958 whole entry): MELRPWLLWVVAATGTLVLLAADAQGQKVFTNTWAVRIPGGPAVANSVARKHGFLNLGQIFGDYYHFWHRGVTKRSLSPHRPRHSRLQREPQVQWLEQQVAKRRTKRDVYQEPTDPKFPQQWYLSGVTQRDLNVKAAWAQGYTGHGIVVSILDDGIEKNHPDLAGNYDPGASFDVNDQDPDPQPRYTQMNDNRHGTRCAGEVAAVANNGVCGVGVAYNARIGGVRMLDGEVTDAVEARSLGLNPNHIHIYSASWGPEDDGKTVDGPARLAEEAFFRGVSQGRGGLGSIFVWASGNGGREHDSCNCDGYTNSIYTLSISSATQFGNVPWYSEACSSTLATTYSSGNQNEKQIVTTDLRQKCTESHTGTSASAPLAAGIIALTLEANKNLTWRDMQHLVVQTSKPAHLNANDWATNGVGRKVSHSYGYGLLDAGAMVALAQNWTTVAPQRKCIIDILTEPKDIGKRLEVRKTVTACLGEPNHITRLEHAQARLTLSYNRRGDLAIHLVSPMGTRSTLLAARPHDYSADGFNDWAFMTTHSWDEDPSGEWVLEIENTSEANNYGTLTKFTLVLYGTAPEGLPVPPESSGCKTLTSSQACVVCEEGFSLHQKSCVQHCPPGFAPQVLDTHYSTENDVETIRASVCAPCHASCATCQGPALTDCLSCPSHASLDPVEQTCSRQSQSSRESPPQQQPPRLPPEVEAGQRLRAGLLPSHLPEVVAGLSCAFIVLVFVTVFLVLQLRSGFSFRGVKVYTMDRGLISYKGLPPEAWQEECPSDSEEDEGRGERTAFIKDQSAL
Test: furin cleavage Z-score vs untreated control; higher = more cleavage, active = 3.5 or more, inactive = 1 or less, 8 variable residues between constant flanks
Conditions: 15 min
The other results are listed elsewhere or left out. No count for the full screen is at hand.
Choose one outcome from this list and give only that: 1.0 for active, 0.0 for inactive

Query block: Called result for CAAIPLEVIKAGNASASA [HC850]
Result block: 0.0

Query block: Returns: the outcome recorded for CATSSSRKRSAGNASASA [FS-572] in this assay.
Result block: 0.0

Query block: Each sequence tested received a call. Report the one for CATRSVRKRSAGNASASA [FS-100] .
Result block: 1.0

Let us examine a further case.
Query block: Test call, this sequence: CAEVVNSTWVAGNASASA [HC138]
Result block: 0.0
